Hello, the source for this data is ChEMBL document CHEMBL1145194, in case you need it.

Entries and their Ki
# MEASUREMENT TARGET: Opioid receptors; delta & kappa (Homo sapiens, UniProt P41145+P41143)
# EXPERIMENT NOTES: Inhibition of [3H]deltorphin II binding to delta and kappa opioid receptors expressed in HEK 293 cells
# Type: cell-based
# TEST PARAMETERS: hek293
Could you give me the number in nM? Just the number is fine.

Solved cases below.
[
  {
    "SMI": "CN(C(=O)Cc1ccc(Cl)c(Cl)c1)[C@H](CN1CCCC1)c1cccc(NC(=O)CNC(=O)CNC(=O)CCC(=O)NCC(=O)NCC(=O)Nc2cccc3c4c([nH]c23)[C@@H]2Oc3c(O)ccc5c3[C@@]23CCN(CC2CC2)[C@H](C5)[C@]3(O)C4)c1",
    "MEASUREMENT TARGET": "Opioid receptors; delta & kappa (Homo sapiens, UniProt P41145+P41143)",
    "UNITS LABEL": "nM",
    "OBSERVED MEASUREMENT": 0.52
  },
  {
    "SMI": "CNC(=O)CNC(=O)CCC(=O)NCC(=O)Nc1cccc2c3c([nH]c12)[C@@H]1Oc2c(O)ccc4c2[C@@]12CCN(CC1CC1)[C@H](C4)[C@]2(O)C3",
    "MEASUREMENT TARGET": "Opioid receptors; delta & kappa (Homo sapiens, UniProt P41145+P41143)",
    "UNITS LABEL": "nM",
    "OBSERVED MEASUREMENT": 0.15
  },
  {
    "SMI": "CNC(=O)CNC(=O)CNC(=O)CCC(=O)NCC(=O)NCC(=O)Nc1cccc2c3c([nH]c12)[C@@H]1Oc2c(O)ccc4c2[C@@]12CCN(CC1CC1)[C@H](C4)[C@]2(O)C3",
    "MEASUREMENT TARGET": "Opioid receptors; delta & kappa (Homo sapiens, UniProt P41145+P41143)",
    "UNITS LABEL": "nM",
    "OBSERVED MEASUREMENT": 1.07
  }
]

Form field: reported Ki of `CN(C(=O)Cc1ccc(Cl)c(Cl)c1)[C@H](CN1CCCC1)c1cccc(NC(=O)CNC(=O)CCC(=O)NCC(=O)Nc2cccc3c4c([nH]c23)[C@@H]2Oc3c(O)ccc5c3[C@@]23CCN(CC2CC2)[C@H](C5)[C@]3(O)C4)c1` 0.43

* * *

Entries and their ED50 Ratio
# Tested on: Mus musculus
# EXPERIMENT NOTES: Ratio of effective dose of compound producing agonistic activity in presence and absence of benzylidenenaltrexone (25 pmol) upon intrathecal administration in mouse tail flick assay
# Assay type: functional
Write the number on its own, no unit after it.

[
  {
    "SMI": "CN(C(=O)Cc1ccc(Cl)c(Cl)c1)[C@H](CN1CCCC1)c1cccc(NC(=O)CNC(=O)CNC(=O)CCCCC(=O)NCC(=O)NCC(=O)Nc2cccc3c4c([nH]c23)[C@@H]2Oc3c(O)ccc5c3[C@@]23CCN(CC2CC2)[C@H](C5)[C@]3(O)C4)c1",
    "READOUT KIND": "ED50 Ratio",
    "OBSERVED MEASUREMENT": 3.4
  },
  {
    "SMI": "CNC(=O)CNC(=O)CNC(=O)CCC(=O)NCC(=O)NCC(=O)Nc1cccc([C@@H](CN2CCCC2)N(C)C(=O)Cc2ccc(Cl)c(Cl)c2)c1",
    "READOUT KIND": "ED50 Ratio",
    "OBSERVED MEASUREMENT": 1.3
  }
]

Now look at this entry.
Form field: reported ED50 Ratio of `CNC(=O)CNC(=O)CCC(=O)NCC(=O)Nc1cccc([C@@H](CN2CCCC2)N(C)C(=O)Cc2ccc(Cl)c(Cl)c2)c1` 1
